FYI, the data here is from patent US20220251081A1.

For each record, write down the corresponding pIC50.
Assayed system: MAT2A homodimer (Homo sapiens)
Construct: inferred from Ni sepharose purification and imidazole elution
Sequence (P31153 whole entry): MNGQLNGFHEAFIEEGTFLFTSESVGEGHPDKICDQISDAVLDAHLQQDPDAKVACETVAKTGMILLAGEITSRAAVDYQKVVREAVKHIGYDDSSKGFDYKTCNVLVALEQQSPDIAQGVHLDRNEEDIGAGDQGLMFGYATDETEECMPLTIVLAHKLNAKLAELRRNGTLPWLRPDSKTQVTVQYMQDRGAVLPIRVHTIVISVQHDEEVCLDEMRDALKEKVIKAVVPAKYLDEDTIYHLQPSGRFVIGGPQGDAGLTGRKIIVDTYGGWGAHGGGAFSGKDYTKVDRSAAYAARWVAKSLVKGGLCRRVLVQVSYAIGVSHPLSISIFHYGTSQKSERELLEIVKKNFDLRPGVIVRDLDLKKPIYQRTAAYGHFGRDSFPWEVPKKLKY
Measurement protocol: Biochemical assay: inhibition of recombinant MAT2A homodimer (phosphate release, PiColorLock Gold)
Test parameters: MAT2A IC50 score; read-out: Enzyme Inhibition
pIC50: −log10 of the molar value.

Challenge: Give recorded pIC50. CCOc1ccc2cc(-c3ccc(OC)cc3)c(=O)n(-c3ccc(C4CC4)cc3)c2n1
Response given: > 7.00

Challenge: Item Cn1cc2cc(-c3nc4ccc(OCC(F)(F)F)nc4n(-c4ccc(Cl)cc4)c3=O)ccc2n1 : provide pIC50
Response given: > 7.00

Challenge: Indicate the recorded pIC50 value for this molecule: COc1ccc(-c2cc3cnc(NCC(F)(F)F)nc3n(-c3ccc(OC)cc3)c2=O)cc1
Response given: > 7.00

Challenge: Give reported pIC50 value for Cn1cc2cc(-c3nc4ccc(OCC(F)(F)F)nc4n(-c4ccc(N)nc4)c3=O)ccc2n1
Response given: 6.00 to 7.00

Challenge: Note pIC50 for the molecule shown: COc1ccc(-n2c(=O)c(-c3ccncc3)cc3cnc(NCC(F)(F)F)nc32)cc1
Response given: 6.00 to 7.00

Challenge: Supply measured pIC50 of COc1ccc(-n2c(=O)c(-c3ccc4nn(CCN)cc4c3)nc3ccc(OCC(F)(F)F)nc32)cc1 in your reply.
Response given: > 7.00

Challenge: Return the recorded pIC50 value; entry: CCOc1ccc2cc(-c3ccc4nn(C)cc4c3)c(=O)n(-c3ccc(OC)nc3)c2n1
Response given: > 7.00

Challenge: Dear colleague, please send me the reported pIC50 for CCOc1ccc2cc(-c3ccn4nccc4c3)c(=O)n(-c3ccc(Cl)cc3)c2n1 when you can.
Response given: > 7.00

====

Test system: SAM in HCT116 human colon carcinoma cell line with deleted MTAP gene
Measurement protocol: Cellular assay of target engagement (SAM): SAM level by LC-MS/MS after 72 hrs
Type: cell-based
Test parameters: HCT-116, IC50 score, read-out: Cell 72 h SAM Inhibition (MTAP −/−)
Measurement type: IC50

Challenge: Determine from records and report IC50 for [2H]C([2H])([2H])Oc1ccc(-n2c(=O)c(-c3ccc4nn(C)cc4c3)cc3ccc(O[C@H](C)C(F)(F)F)nc32)cc1 [Example 304]
Response given: < 100 nM

Challenge: State, in one line, measured IC50 of CCOc1ccc2cc(-c3ccc4nn(CC(C)(C)O)cc4c3)c(=O)n(-c3ccc(Cl)cc3)c2n1 [Example 196]
Response given: < 100 nM

Challenge: Could you please provide reported IC50 for CCNc1ccc2cc(-c3ccc4nn(C)cc4c3)c(=O)n(-c3ccc(C)nc3)c2n1 [Example 307] ? Thanks!
Response given: < 100 nM

Challenge: Report measured IC50; entry is CCOc1ccc2cc(-c3ccc4nn(CC(C)(C)O)cc4c3)c(=O)n(-c3ccc(OC(F)F)nc3)c2n1 [Example 213]
Response given: 100 to 1000 nM

Challenge: Recall and state the measured IC50 for Cn1cc2cc(-c3cc4ccc(OCC(F)(F)F)nc4n(-c4ccc(C5CC5)cc4)c3=O)ccc2n1 [Example 314] .
Response given: < 100 nM

Challenge: Please report IC50 for the following molecule: [2H]C([2H])([2H])Oc1ccc(-n2c(=O)c(-c3ccc4nn(C)cc4c3)cc3ncc(OCC)nc32)cc1 [Example 342]
Response given: < 100 nM

Challenge: Answer with the recorded IC50 of CCOc1ccc2cc(-c3ccnc(OC)c3)c(=O)n(-c3ccc(Cl)cc3)c2n1 [Example 202] only.
Response given: 100 to 1000 nM
